Target Or System: Multidrug resistance-associated protein 1 (Homo sapiens, UniProt P33527)
Sequence (P33527 whole entry): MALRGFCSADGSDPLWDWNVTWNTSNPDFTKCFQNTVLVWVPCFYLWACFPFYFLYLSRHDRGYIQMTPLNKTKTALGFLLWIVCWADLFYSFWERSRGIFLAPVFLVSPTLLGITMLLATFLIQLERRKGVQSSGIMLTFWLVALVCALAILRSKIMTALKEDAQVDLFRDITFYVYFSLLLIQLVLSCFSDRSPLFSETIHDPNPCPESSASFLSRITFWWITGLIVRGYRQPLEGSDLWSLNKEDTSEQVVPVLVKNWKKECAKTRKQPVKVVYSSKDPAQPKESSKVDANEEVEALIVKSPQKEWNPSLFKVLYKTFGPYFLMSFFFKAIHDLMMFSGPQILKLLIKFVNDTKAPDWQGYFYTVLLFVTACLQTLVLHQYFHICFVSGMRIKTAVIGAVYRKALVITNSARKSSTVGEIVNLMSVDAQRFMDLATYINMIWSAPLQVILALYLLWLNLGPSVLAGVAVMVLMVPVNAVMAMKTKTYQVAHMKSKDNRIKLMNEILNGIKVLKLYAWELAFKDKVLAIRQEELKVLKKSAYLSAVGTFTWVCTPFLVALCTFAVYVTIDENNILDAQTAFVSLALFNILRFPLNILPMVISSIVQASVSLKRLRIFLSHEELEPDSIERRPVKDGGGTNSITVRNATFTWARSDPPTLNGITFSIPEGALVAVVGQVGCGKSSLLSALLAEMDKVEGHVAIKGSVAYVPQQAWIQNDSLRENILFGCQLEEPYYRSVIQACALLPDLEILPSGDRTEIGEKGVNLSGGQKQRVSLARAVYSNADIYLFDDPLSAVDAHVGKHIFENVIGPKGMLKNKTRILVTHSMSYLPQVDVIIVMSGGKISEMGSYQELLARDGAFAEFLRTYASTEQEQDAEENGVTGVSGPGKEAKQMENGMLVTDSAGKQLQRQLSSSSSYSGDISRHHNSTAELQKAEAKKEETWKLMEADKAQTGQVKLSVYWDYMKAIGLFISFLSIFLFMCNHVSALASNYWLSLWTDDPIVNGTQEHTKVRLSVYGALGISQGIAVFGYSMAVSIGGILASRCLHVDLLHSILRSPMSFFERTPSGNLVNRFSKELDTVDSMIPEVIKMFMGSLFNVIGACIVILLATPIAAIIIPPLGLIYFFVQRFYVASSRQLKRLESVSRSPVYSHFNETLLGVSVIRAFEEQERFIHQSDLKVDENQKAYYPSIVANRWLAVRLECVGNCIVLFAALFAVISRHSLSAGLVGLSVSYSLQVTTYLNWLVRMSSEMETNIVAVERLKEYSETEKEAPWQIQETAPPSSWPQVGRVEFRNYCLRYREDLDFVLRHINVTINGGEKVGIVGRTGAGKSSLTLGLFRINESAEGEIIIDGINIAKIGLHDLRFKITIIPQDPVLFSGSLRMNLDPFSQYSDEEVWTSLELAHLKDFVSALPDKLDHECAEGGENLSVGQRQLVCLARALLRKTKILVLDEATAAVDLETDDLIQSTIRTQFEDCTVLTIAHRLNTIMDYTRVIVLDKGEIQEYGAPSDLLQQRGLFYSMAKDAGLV
Method Description: TP_TRANSPORTER: uptake in membrane vesicle from MRP1-expressing HeLa cells
Assay type: functional, cell membranes
Experimental Endpoint: Activity

Field: example entries. Status: answers known.
CCCCC/C=C\C\C=C/C=C/C=C/[C@@H](SC[C@H](N)C(=O)O)[C@@H](O)CCCC(=O)O ... substrate [+]
CCCCC/C=C\C\C=C/C=C/C=C/[C@@H](SC[C@H](NC(C)=O)C(=O)O)[C@@H](O)CCCC(=O)O ... substrate [+]
CCCCC/C=C\C\C=C/C=C/C=C/[C@@H](SC[C@H](N)C(=O)NCC(=O)O)[C@@H](O)CCCC(=O)O ... substrate [+]
C[C@H](CCC(=O)O)[C@H]1CC[C@H]2[C@@H]3C[C@H](O[C@@H]4O[C@H](C(=O)O)[C@@H](O)[C@H](O)[C@H]4O)[C@@H]4C[C@H](O)CC[C@]4(C)[C@H]3CC[C@]12C [6alpha-Glucuronosylhyodeoxycholate] ... substrate [+]

In plain terms, COc1cc([C@@H]2c3cc4c(cc3[C@@H](O[C@@H]3O[C@@H]5CO[C@@H](C)O[C@H]5[C@H](O)[C@H]3O)[C@H]3COC(=O)[C@H]23)OCO4)cc(OC)c1O[C@@H]1O[C@H](C(=O)O)[C@@H](O)[C@H](O)[C@H]1O [ETOPOSIDE GLUCURONIDE] has a documented Activity of substrate [+]
